assayProtocol: Inhibition of amyloid beta (25 to 35 residues) (unknown origin) aggregate-induced toxicity in rat PC12 cells preincubated for 1 hr followed by amyloid beta challenge measured after 24 hrs by MTT assay
# note: boundary value 100 µM maps to Criterion not met; EC50 below it maps to Criterion met

molecule=CC1(C)C=Cc2cc(C(=O)O)ccc2O1 classlabel="Criterion not met"
molecule=CC1=CC[C@@H]2[C@@]3(C)[C@@H](O)CC(=O)OC(C)(C)[C@@H]3CC[C@@]2(C)[C@]12Cc1c(c(C)c(C)oc1=O)O2 classlabel="Criterion not met"
molecule=C[C@@H]1C[C@@]23C[C@H]4C(C)(C)[C@@]5(C[C@]4(CN2C1=O)NC3=O)C(=O)Nc1c5ccc2c1C=CC(C)(C)O2 classlabel="Criterion not met"
molecule=CC1=CC[C@@H]2[C@@]3(C)C=CC(=O)OC(C)(C)[C@@H]3CC[C@@]2(C)[C@]12Cc1c(c(C)c(C)oc1=O)O2 classlabel="Criterion met"
molecule=C[C@H]1CN2C[C@]34C[C@@]5(C(=O)Nc6c5ccc5c6C=CC(C)(C)O5)C(C)(C)[C@@H]3C[C@@]2(C1)C(=O)N4C classlabel="Criterion not met"
molecule=O=C(/C=C/c1ccc(O)c(O)c1)O[C@H](Cc1ccc(O)c(O)c1)C(=O)O classlabel="Criterion met"
molecule=CN1C(=O)[C@@]23CCC(=O)N2C[C@@]12C[C@@]1(C(=O)Nc4c1ccc1c4C=CC(C)(C)O1)C(C)(C)[C@@H]2C3 classlabel="Criterion not met"
molecule=C[C@@H]1C[C@@]23C[C@H]4C(C)(C)[C@@]5(C[C@]4(CN2C1=O)N(C)C3=O)C(=O)Nc1c5ccc2c1C=CC(C)(C)O2 classlabel="Criterion not met"
molecule=C[C@@H]1C[C@@]23C[C@H]4C(C)(C)[C@@]5(C[C@]4(CN2C1=O)NC3=O)C(=O)Nc1c5ccc2c1OC=CC(C)(C)O2 classlabel="Criterion not met"
molecule=C[C@H]1CN2C[C@]34C[C@@]5(C(=O)Nc6c5ccc5c6OC=CC(C)(C)O5)C(C)(C)[C@@H]3C[C@@]2(C1)C(=O)N4C classlabel="Criterion not met"
molecule=CC(=O)O[C@H]1CC(=O)OC(C)(C)[C@@H]2CC[C@]3(C)[C@H](CC=C(C)[C@@]34C[C@]3(OC(C)=C(C)C3=O)C(=O)O4)[C@@]12C classlabel="Criterion not met"
